- experimentalDetails: in vivo
- conditionInfo: male, cynomolgus monkey, plasma, sc, 0.1 mg, plasma octreotide, SC injection 0.1 mg daily, Day 1, male monkeys

# molecule, uom, AUC(0-t)
measured = [
    ("C[C@@H](O)[C@@H]1NC(=O)[C@H](CCCCN)NC(=O)[C@@H](Cc2c[nH]c3ccccc23)NC(=O)[C@H](Cc2ccccc2)NC(=O)[C@@H](NC(=O)[C@H](N)Cc2ccccc2)CSSC[C@@H](C(=O)N[C@H](CO)[C@@H](C)O)NC1=O [octreotide acetate]", "ng·h/mL", 41.7),
]

---

- experimentalDetails: in vivo
- conditionInfo: female, cynomolgus monkey, plasma, sc, 0.1 mg, plasma octreotide, SC injection 0.1 mg daily, Day 180, female monkeys
parameter: AUC(0-t)

# compound, parameter, obsValue
rows = [
    ("C[C@@H](O)[C@@H]1NC(=O)[C@H](CCCCN)NC(=O)[C@@H](Cc2c[nH]c3ccccc23)NC(=O)[C@H](Cc2ccccc2)NC(=O)[C@@H](NC(=O)[C@H](N)Cc2ccccc2)CSSC[C@@H](C(=O)N[C@H](CO)[C@@H](C)O)NC1=O [octreotide acetate]", "AUC(0-t)", "60.8 ng·h/mL"),
]

---

- experimentalDetails: in vivo
- conditionInfo: female, cynomolgus monkey, plasma, sc, 0.1 mg, plasma octreotide, SC injection 0.1 mg daily, Day 1, female monkeys

# compound, AUC(0-t), ng·h/mL
records = [
    ("C[C@@H](O)[C@@H]1NC(=O)[C@H](CCCCN)NC(=O)[C@@H](Cc2c[nH]c3ccccc23)NC(=O)[C@H](Cc2ccccc2)NC(=O)[C@@H](NC(=O)[C@H](N)Cc2ccccc2)CSSC[C@@H](C(=O)N[C@H](CO)[C@@H](C)O)NC1=O [octreotide acetate]", 64.3),
]

---

- experimentalDetails: in vivo
- conditionInfo: male, cynomolgus monkey, plasma, sc, 0.1 mg, plasma octreotide, SC injection 0.1 mg daily, Day 270, male monkeys

# compound, AUC(0-t) / ng·h/mL
records = [
    ("C[C@@H](O)[C@@H]1NC(=O)[C@H](CCCCN)NC(=O)[C@@H](Cc2c[nH]c3ccccc23)NC(=O)[C@H](Cc2ccccc2)NC(=O)[C@@H](NC(=O)[C@H](N)Cc2ccccc2)CSSC[C@@H](C(=O)N[C@H](CO)[C@@H](C)O)NC1=O [octreotide acetate]", 51.3),
]

The measurements presented in this section are drawn from paper PMC4153969.
